Test system: HeLa
Assay: Cytotoxicity against human HeLa cells after 72 hrs by MTT assay
Type: functional, cell-based
pIC50: −log10 of the molar value.

smilesEntry	pIC50
Cn1ccc2c3c(=O)cc(-c4ccccc4)[nH]c3ccc21	7.00
CCCCn1ccc2c3c(=O)cc(-c4ccccc4)[nH]c3ccc21	7.70
O=c1cc(-c2ccccc2)[nH]c2ccc3c(ccn3CC3CC3)c12	7.70
CCCCCn1ccc2c3c(=O)cc(-c4ccccc4)[nH]c3ccc21	7.70
CCn1ccc2c3c(=O)cc(-c4ccccc4)[nH]c3ccc21	8.00
CCCn1ccc2c3c(=O)cc(-c4ccccc4)[nH]c3ccc21	7.52
CC[C@]1(O)C[C@H]2CN(CCc3c([nH]c4ccccc34)[C@@](C(=O)OC)(c3cc4c(cc3OC)N(C=O)[C@H]3[C@@](O)(C(=O)OC)[C@H](OC(C)=O)[C@]5(CC)C=CCN6CC[C@]43[C@@H]65)C2)C1	8.30
O=c1cc(-c2ccccc2)[nH]c2ccc3c(ccn3Cc3ccccc3)c12	7.00
CC(=O)O[C@H]1C(=O)[C@@]2(C)[C@H]([C@H](OC(=O)c3ccccc3)[C@]3(O)C[C@H](OC(=O)[C@H](O)[C@@H](NC(=O)c4ccccc4)c4ccccc4)C(C)=C1C3(C)C)[C@]1(OC(C)=O)CO[C@@H]1C[C@@H]2O	8.10

----------
Listed molecules paired with reported Activity
Tested on: A549
Test: Cell cycle arrest in human A549 cells assessed as accumulation at G2/M phase at 1 uM after 24 hrs
Format: functional

smilesEntry	Activity [%]
CCCCCn1ccc2c3c(=O)cc(-c4ccccc4)[nH]c3ccc21	75.5
O=c1cc(-c2ccccc2)[nH]c2ccc3c(ccn3CC3CC3)c12	74.6
CCCn1ccc2c3c(=O)cc(-c4ccccc4)[nH]c3ccc21	76.9
O=c1cc(-c2ccccc2)[nH]c2ccc3c(ccn3Cc3ccccc3)c12	75.8
CCCCn1ccc2c3c(=O)cc(-c4ccccc4)[nH]c3ccc21	77.6
Cn1ccc2c3c(=O)cc(-c4ccccc4)[nH]c3ccc21	74.9
CCn1ccc2c3c(=O)cc(-c4ccccc4)[nH]c3ccc21	77.3
CC[C@]1(O)C[C@H]2CN(CCc3c([nH]c4ccccc34)[C@@](C(=O)OC)(c3cc4c(cc3OC)N(C=O)[C@H]3[C@@](O)(C(=O)OC)[C@H](OC(C)=O)[C@]5(CC)C=CCN6CC[C@]43[C@@H]65)C2)C1	45.2

----------
Tested on: MCF7
Experiment: Cytotoxicity against human MCF7 cells after 72 hrs by MTT assay
Assay type: functional, cell-based
Conditions: MCF7, 72 h
Listed compounds paired with reported IC50

smilesEntry	IC50 (nM)
O=c1cc(-c2ccccc2)[nH]c2ccc3c(ccn3Cc3ccccc3)c12	300
CC[C@]1(O)C[C@H]2CN(CCc3c([nH]c4ccccc34)[C@@](C(=O)OC)(c3cc4c(cc3OC)N(C=O)[C@H]3[C@@](O)(C(=O)OC)[C@H](OC(C)=O)[C@]5(CC)C=CCN6CC[C@]43[C@@H]65)C2)C1	20
Cn1ccc2c3c(=O)cc(-c4ccccc4)[nH]c3ccc21	400
CCCn1ccc2c3c(=O)cc(-c4ccccc4)[nH]c3ccc21	70

----------
Tested on: MCF7
Assay: Cytotoxicity against human MCF7 cells after 72 hrs by MTT assay
Format: functional, cell-based
Details: MCF7, 72 h
metric: IC50 (nM)

smilesEntry	endpointValue
CCn1ccc2c3c(=O)cc(-c4ccccc4)[nH]c3ccc21	40
CCCCn1ccc2c3c(=O)cc(-c4ccccc4)[nH]c3ccc21	60
CCCCCn1ccc2c3c(=O)cc(-c4ccccc4)[nH]c3ccc21	80
O=c1cc(-c2ccccc2)[nH]c2ccc3c(ccn3CC3CC3)c12	40
CC(=O)O[C@H]1C(=O)[C@@]2(C)[C@H]([C@H](OC(=O)c3ccccc3)[C@]3(O)C[C@H](OC(=O)[C@H](O)[C@@H](NC(=O)c4ccccc4)c4ccccc4)C(C)=C1C3(C)C)[C@]1(OC(C)=O)CO[C@@H]1C[C@@H]2O	7
